Reference source: patent US10689378B2

molecular target: EED (1-441)-His protein (Homo sapiens, UniProt O75530); construct: 30 nM EED (1-441)-His protein; experiment: EED-H3K27Me3 peptide competition binding assay by AlphaScreen; conditions: read-out: (a) IC50, EED Alphascreen binding Qualified
Sequence (O75530 whole entry): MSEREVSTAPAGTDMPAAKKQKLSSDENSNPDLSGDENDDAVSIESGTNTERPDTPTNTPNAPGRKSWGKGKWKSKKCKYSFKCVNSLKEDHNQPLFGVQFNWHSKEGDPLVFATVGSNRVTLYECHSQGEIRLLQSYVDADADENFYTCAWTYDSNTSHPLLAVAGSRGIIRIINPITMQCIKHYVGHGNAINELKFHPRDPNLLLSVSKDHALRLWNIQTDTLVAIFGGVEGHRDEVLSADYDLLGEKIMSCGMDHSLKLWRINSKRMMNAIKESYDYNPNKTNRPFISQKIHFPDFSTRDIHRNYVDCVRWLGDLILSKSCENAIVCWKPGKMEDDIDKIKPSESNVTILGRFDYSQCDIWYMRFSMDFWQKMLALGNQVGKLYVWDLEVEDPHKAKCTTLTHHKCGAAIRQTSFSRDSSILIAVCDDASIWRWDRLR
Provide the reported pIC50 of each item.
One number for each entry, as −log10 of the molar value.

compound	endpointName	numericResult
COc1ccccc1CNc1ccc(-c2ccc(C(N)=O)cc2)c2nncn12 [Example 72]	pIC50	7.89
COc1ccccc1CNc1ccc(-c2ccc(N3CCN(C(C)C)CC3)cc2)c2nncn12 [Example 77]	pIC50	7.84
COc1ccccc1CNc1ccc(-c2cccc(CCN(C)C)c2)c2nncn12 [Example 94]	pIC50	7.58
CCN1CCN(c2ccc(-c3ccc(NCc4ccccc4OC)n4cnnc34)cn2)CC1 [Example 69]	pIC50	7.55
COc1cccc(F)c1CNc1ccc(-c2ccc(S(C)(=O)=O)cc2)c2nncn12 [Example 78]	pIC50	7.74
COc1ccccc1CNc1ccc(-c2cncc(S(C)(=O)=O)c2)c2nncn12 [Example 95]	pIC50	6.75
COc1cccc(F)c1CNc1ccc(-c2ccccn2)c2nncn12 [Example 5]	pIC50	7.32
COc1ccccc1CNc1ccc(-c2ccc(N3CCN(C)CC3)nc2)c2nncn12 [Example 21]	pIC50	6.90
COc1ccccc1CNc1ccc(-c2ccc(C(=O)N3CCCC3)cc2)c2nncn12 [Example 42]	pIC50	7.78

Shift focus to the following entry.
Lab book: pIC50 of COc1cccc(F)c1CNc1ccc(-c2cncc(S(C)(=O)=O)c2)c2nncn12 [Example 140] noted as 7.76

###

molecular target: EED (1-441)-His protein (Homo sapiens); construct: 30 nM EED (1-441)-His protein; assay: EED-H3K27Me3 peptide competition binding assay by AlphaScreen; details: read-out: (a) IC50 EED Alphascreen binding Qualified
Provide the reported IC50 of each item.
Answers are plain numbers, in nM.

Example cases with answers are listed next.
COc1cccc(F)c1CNc1ccc(-c2c(C)cnn2C)c2nncn12 25.8
COc1cccc(F)c1CNc1ccc(-n2cncn2)c2nncn12 17.1
COc1cccc(F)c1CNc1ccc(-n2cccn2)c2nncn12 25.6
COc1cccc(F)c1CNc1ccc(-c2cnc(C(C)C)cc2C)c2nncn12 29.5
COc1cccc(F)c1CNc1ccc(-n2ccnc2C)c2nncn12 39.8
COc1cccc(F)c1CNc1ccc(-n2ccc(C)n2)c2nncn12 42.9

For each of the molecules below, note its IC50.
1. COc1cc(F)cc(F)c1CNc1ccc(-c2cnc(OC(C)C)nc2C)c2nncn12
2. COc1cccc(CNc2ccc(-c3cccnc3C)c3nncn23)n1
3. COc1cccc(F)c1CNc1ccc(-n2ccnc2)c2nncn12
4. COc1cccc(F)c1CNc1ccc(-n2ccnn2)c2nncn12
5. COc1cccc(F)c1CNc1ccc(-n2cc(C)c(C)n2)c2nncn12

22.9
120
25
15.1
23.5

For each of the molecules below, note its IC50.
1. COc1cccc(F)c1CNc1ccc(-c2ccc(NC(=O)N(C)C)nc2C)c2nncn12
2. COc1cccc(F)c1CNc1ccc(-c2cnc(C)n2C)c2nncn12
3. COc1cnccc1CNc1ccc(-c2cccnc2C)c2nncn12

11.7
13.3
4090

For each of the molecules below, note its IC50.
1. COc1cccc(F)c1CNc1ccc(-c2nc(C)nn2C)c2nncn12
2. COc1cccc(F)c1CNc1ccc(-c2ccc(C(C)C)nc2C)c2nncn12
3. COc1cccnc1CNc1ccc(-c2cccnc2C)c2nncn12
4. COc1cc(F)cc(F)c1CNc1ccc(-c2cnc(C)nc2OC)c2nncn12
5. COc1cccc(F)c1CNc1ccc(-c2c(C)ccnc2C)c2nncn12
6. COc1cccc(F)c1CNc1ccc(-n2cc(C)cn2)c2nncn12

15.8
23.4
791
48.7
142
25.8

For each of the molecules below, note its IC50.
1. COc1cccc(F)c1CNc1ccc(-c2ncnn2C)c2nncn12
2. COc1ncccc1CNc1ccc(-c2ccc(CN(C)C)cc2)c2nncn12
3. COc1cccc(F)c1CNc1ccc(-c2ccc(C(C)(C)C#N)nc2C)c2nncn12
4. COc1ncccc1CNc1ccc(-c2cnc(C)nc2C)c2nncn12
5. COc1nccc(N)c1CNc1ccc(-c2cccnc2C)c2nncn12
6. COc1cccc(F)c1CNc1ccc(-c2cn(C)c(C)n2)c2nncn12
7. COc1cccc(F)c1CNc1ccc(-n2cnc(C)c2)c2nncn12

1: 19; 2: 58.3; 3: 5.2; 4: 85.1; 5: 102; 6: 197; 7: 26.1
